Consider the following MIC values measured on S. pyogenes UNT-014, MP-625 MacRes.
Outcome measure: MIC

INSERT INTO assay_data (molecule, reported) VALUES
  ('CSC1O[C@H]([C@H](NC(=O)[C@H]2NC[C@@H]3CC=CCO[C@H]32)[C@H](C)Cl)C(O)[C@@H](O)[C@H]1O (stereo partly shown)', '≤ 0.0313 µg/mL'),
  ('CSC1O[C@H]([C@H](NC(=O)[C@@H]2[C@@H]3OCCCC[C@H]3CN2C)[C@H](C)Cl)C(O)[C@@H](O)[C@H]1O (stereo partly shown)', '≤ 0.0313 µg/mL'),
  ('CSC1O[C@H]([C@H](NC(=O)[C@H]2NC[C@@H]3CC(F)(F)CCO[C@H]32)[C@H](C)Cl)C(O)[C@@H](O)[C@H]1O (stereo partly shown)', '≤ 0.0313 µg/mL'),
  ('CSC1O[C@H]([C@H](NC(=O)[C@H]2NC[C@@H]3C[C@H]4OC(C)(C)O[C@H]4CO[C@H]32)[C@H](C)Cl)C(O)[C@@H](O)[C@H]1O (stereo partly shown)', '32 µg/mL');

###

Tested on: S. aureus UNT-120, MP-619, NR522 (USA 600, GISA)
Protocol text: microbe, parasite or virus in culture
Type: cell-based
Test settings: Staphylococcus aureus, USA600
Outcome measure: MIC

INSERT INTO results (molecule, reported) VALUES
  ('CSC1O[C@H]([C@H](NC(=O)[C@H]2NC[C@@H]3C[C@H]4OC(C)(C)O[C@H]4CO[C@H]32)[C@H](C)Cl)C(O)[C@@H](O)[C@H]1O (some centres unmarked)', '> 64 µg/mL'),
  ('CSC1O[C@H]([C@H](NC(=O)[C@H]2NC[C@@H]3CC(F)(F)CCO[C@H]32)[C@H](C)Cl)C(O)[C@@H](O)[C@H]1O (some centres unmarked)', '> 32 µg/mL'),
  ('CSC1O[C@H]([C@H](NC(=O)[C@@H]2[C@@H]3OCCCC[C@H]3CN2C)[C@H](C)Cl)C(O)[C@@H](O)[C@H]1O (some centres unmarked)', '> 32 µg/mL'),
  ('CSC1O[C@H]([C@H](NC(=O)[C@H]2NC[C@@H]3C[C@@H](O)[C@@H](O)CO[C@H]32)[C@H](C)Cl)C(O)[C@@H](O)[C@H]1O (some centres unmarked)', '> 64 µg/mL'),
  ('CSC1O[C@H]([C@H](NC(=O)[C@H]2NC[C@@H]3CC=CCO[C@H]32)[C@H](C)Cl)C(O)[C@@H](O)[C@H]1O (some centres unmarked)', '> 32 µg/mL');

###

System: K. pneumoniae ATCC 10031
Protocol text: MIC against K. pneumoniae ATCC 10031
Assay type: cell-based
Test settings: Klebsiella pneumoniae, ATCC10031
Outcome measure: MIC

INSERT INTO results (compound, outcome_measure, reported) VALUES
  ('CSC1O[C@H]([C@H](NC(=O)[C@H]2NC[C@@H]3CC=CCO[C@@H]32)[C@H](C)Cl)C(O)[C@@H](O)[C@H]1O (some centres unmarked)', 'MIC', '> 64 µg/mL'),
  ('CCNC(=O)N1CCO[C@@H]2[C@H](CN[C@@H]2C(=O)N[C@H]([C@H](C)Cl)[C@H]2OC(SC)[C@H](O)[C@H](O)C2O)C1 (some centres unmarked)', 'MIC', '> 64 µg/mL'),
  ('CSC1O[C@H]([C@H](NC(=O)[C@H]2NC[C@@H]3CC(c4ccc(-c5ccccc5)cc4)=CCO[C@H]32)[C@H](C)Cl)C(O)[C@@H](O)[C@H]1O (some centres unmarked)', 'MIC', '> 64 µg/mL'),
  ('CSC1O[C@H]([C@H](NC(=O)[C@H]2NC[C@@H]3CN(Cc4ccc(N)nc4)CCO[C@H]32)[C@H](C)Cl)C(O)[C@@H](O)[C@H]1O (some centres unmarked)', 'MIC', '> 64 µg/mL'),
  ('CSC1O[C@H]([C@H](NC(=O)[C@H]2NC[C@@H]3CN(C)CCO[C@H]32)[C@H](C)Cl)C(O)[C@@H](O)[C@H]1O (some centres unmarked)', 'MIC', '> 64 µg/mL'),
  ('CSC1O[C@H]([C@H](NC(=O)[C@H]2NC[C@@H]3CC(NCc4cccc(F)c4)CCO[C@H]32)[C@H](C)Cl)C(O)[C@@H](O)[C@H]1O (some centres unmarked)', 'MIC', '> 64 µg/mL'),
  ('CSC1O[C@H]([C@H](NC(=O)[C@H]2NC[C@@H]3CC(NC4CC4)CCO[C@H]32)[C@H](C)Cl)C(O)[C@@H](O)[C@H]1O (some centres unmarked)', 'MIC', '> 64 µg/mL'),
  ('CSC1O[C@H]([C@H](NC(=O)[C@H]2NC[C@@H]3CC(NCc4ccc(F)cc4)CCO[C@H]32)[C@H](C)Cl)C(O)[C@@H](O)[C@H]1O (some centres unmarked)', 'MIC', '> 64 µg/mL'),
  ('CNC1CCO[C@@H]2[C@H](CN[C@@H]2C(=O)N[C@H]([C@H](C)Cl)[C@H]2OC(SC)[C@H](O)[C@H](O)C2O)C1 (some centres unmarked)', 'MIC', '> 64 µg/mL'),
  ('CSC1O[C@H]([C@H](NC(=O)[C@H]2NC[C@@H]3CC(c4cccc5cnccc45)=CCO[C@H]32)[C@H](C)Cl)C(O)[C@@H](O)[C@H]1O (some centres unmarked)', 'MIC', '> 64 µg/mL'),
  ('C=CCOC(=O)N1CCO[C@@H]2[C@H](CN[C@@H]2C(=O)N[C@H]([C@H](C)Cl)[C@H]2OC(SC)[C@H](O)[C@H](O)C2O)C1 (some centres unmarked)', 'MIC', '> 64 µg/mL');
